Source: PubChem BioAssay (NCI)

For each of the compounds below, state its TGI.
System: DU-145 prostate
Test: NCI tumour cell line growth inhibition, 48 h
Give your result in µM as a bare value.

For reference, reported TGI for Nc1c(C(=O)Nc2ccccn2)sc2nc3c(cc12)CCCCCC3 stands at 5.77

For reference, reported TGI for CCOC(=O)C1=C(C)N(Cc2ccc(Cl)cc2Cl)[C@]2(C#N)C(O)=C(Cl)C(Cl)=C(O)[C@]12C#N stands at 38.7

For reference, reported TGI for CCOc1cc(/C=C/C(=O)CC(=O)/C=C/c2ccc(OC(=O)CNCCN(CC)CC)c(OCC)c2)ccc1OC(=O)CNCCN(CC)CC stands at 3.56

For reference, reported TGI for CCCCOCCOCCOC1=C(Cl)C(=O)c2c(O)ccc(O)c2C1=O stands at 3.16

For reference, reported TGI for O=C1C2C(C(=O)N1CC[Se][Se]CCN1C(=O)C3C(C1=O)[C@H]1C=C[C@@H]3C1)[C@H]1C=C[C@@H]2C1 (stereo not given in full) stands at 2.86

---

System: SN12C renal
Assay: NCI tumour cell line growth inhibition, 48 h
EXPERIMENTAL READOUT: TGI (µM)
Give your result in µM as a bare value.

For reference, reported TGI for O=C1CC(=O)NC(=NN2C(=O)/C(=C/c3ccc(Cl)cc3)N=C2c2ccccc2)N1 stands at 32.3

For reference, reported TGI for CCN(CC)C(=S)SSCCO stands at 32.2

For reference, reported TGI for CC(=O)c1c(O)c2c([nH]c1=O)CCCC2 stands at 45.1

For reference, reported TGI for O=C1c2ccoc2C(=O)c2oc(=O)ccc21 stands at 24.2

---

For each of the compounds below, state its GI50.
System: OVCAR-3 ovarian
Assay: NCI tumour cell line growth inhibition, 48 h

For reference, reported GI50 for CC1CCC2c3c([nH]c4ccccc34)C3C(=O)N(c4ccccc4)C(=O)C3C2C1 (stereo unspecified) stands at > 250 µM

For reference, reported GI50 for N=C(N)c1ccc(OCCCCCOc2ccc(C(=N)N)cc2)cc1 stands at 5.25 µM

For reference, reported GI50 for Nc1c(C(=O)Nc2ccccn2)sc2nc3c(cc12)CCCCCC3 stands at 0.626 µM

For reference, reported GI50 for O=C(CN(/C=C/C(=O)C(F)(F)F)c1ccccc1)c1ccc(F)cc1 stands at 25.8 µM

For reference, reported GI50 for CCN(CC)CCS(=O)(=O)CCNc1ccnc2cc(Cl)ccc12 stands at 1.47 µM

For reference, reported GI50 for CCOC(=O)C1=CSC2=NC3=C(CCC/C3=C\c3cc(OC)c(OC)c(OC)c3)C(c3cc(OC)c(OC)c(OC)c3)N12 (stereo unspecified) stands at 2.96 µM

---

System: A498 renal
Assay: NCI tumour cell line growth inhibition, 48 h
EXPERIMENTAL READOUT: TGI

Let me check: O=c1c2cccc3cccc(c4n1CCCN=4)c32 , system A498 renal, measured TGI is > 100 µM

Let me check: Cc1ccc(C=C(C(=O)O)C(=O)O)o1 , system A498 renal, measured TGI is > 100 µM

Let me check: O=S(=O)(/N=C(\NO)Nc1ccc(Cl)cc1)c1cc(S(=O)(=O)c2ccccc2)cs1 , system A498 renal, measured TGI is 28.4 µM

Let me check: O=C(Nc1cccc(-n2cc(-c3ccncc3)c(-c3ccc(O)c(Cl)c3)n2)c1)Nc1ccc(Cl)c(Cl)c1 , system A498 renal, measured TGI is 7.01 µM

Let me check: Cc1cc(OC(=O)c2c(C)cc(OC(=O)c3c(C)cc(O)cc3O)cc2O)cc(O)c1C(=O)O , system A498 renal, measured TGI is > 100 µM

Let me check: CCN(CC)C(=S)S , system A498 renal, measured TGI is > 100 µM

---

Test system: NCI/ADR-RES ovarian
Assay: NCI tumour cell line growth inhibition, 48 h
EXPERIMENTAL READOUT: TGI (µM)
Give your result in µM as a bare value.

For reference, reported TGI for O=C(c1ccccc1)c1ccc2nc3n(c2c1)C(c1c(Cl)cccc1Cl)SC3 (stereo not drawn) stands at 35.8

For reference, reported TGI for Cc1ccc(NC(=O)c2ccc(NC3=C(Cl)C(=O)N(Cc4ccccc4)C3=O)cc2)cc1Cl stands at 21.7

For reference, reported TGI for CN(CCCNC(=O)c1c2ccc3ccccc3c2nn1C)CCCNC(=O)c1c2ccc3ccccc3c2nn1C stands at 29.3

For reference, reported TGI for CC1(CCCCO)C=CC(S(=O)(=O)c2ccccc2)CC1 (stereo not drawn) stands at 12.5

For reference, reported TGI for COc1ccc2c(C(=O)c3c(C)n(CCN4CCOCC4)c4ccccc34)cccc2c1 stands at 55.9

For reference, reported TGI for CCN(CC)C(=S)SSCCO stands at 32.5

---

Tested on: SK-MEL-2 melanoma
Assay: NCI tumour cell line growth inhibition, 48 h
EXPERIMENTAL READOUT: TGI (µM)
Give your result in µM as a bare value.

For reference, reported TGI for CCCCOc1ccc(S(=O)(=O)/N=C(\N)Nc2ccc(Cl)cc2)cc1 stands at 31.6

For reference, reported TGI for CCN(CC)CCS(=O)(=O)CCNc1ccnc2cc(Cl)ccc12 stands at 14.1

For reference, reported TGI for CC/C(=C(/c1ccc(/C=C/C(=O)O)cc1)c1ccc2[nH]ncc2c1)c1ccc(F)cc1Cl stands at 27

For reference, reported TGI for N#Cc1c(N)nc2n[nH]c(N)c2c1-c1ccccc1 stands at 12.8

For reference, reported TGI for CC1=CC(=O)c2c(O)c3c(c(O)c2C1=O)C1C(O)C(C3=O)C23C(=O)c4c(O)c(C)cc(O)c4C(O)=C2C(=O)CC(O)C13 (configuration not stated) stands at 3.79

For reference, reported TGI for O=C(CN(/C=C/C(=O)C(F)(F)F)c1ccccc1)c1ccc(F)cc1 stands at 70.1

For reference, reported TGI for CCc1c(C#N)c(SC(C(N)=O)c2ccccc2)nc(N2CCC(N)CC2)c1C#N (configuration not stated) stands at 28.5

For reference, reported TGI for C=CC(C)(O)CCC1C(=C)C(O)CC2C(C)(C)CCCC12C (configuration not stated) stands at 31.1

For reference, reported TGI for Nc1c(C(=O)c2ccccc2)nnc2ccccc12 stands at 38.3

For reference, reported TGI for CCOC(=O)C1=C(C)N(CC(C)C)C2(O)C(OC)CC(=O)C3C(=O)N(c4ccccc4)C(=O)C132 (configuration not stated) stands at 51.1

For reference, reported TGI for O=C(c1ccccc1)c1ccc2nc3n(c2c1)C(c1c(Cl)cccc1Cl)SC3 (configuration not stated) stands at 78.5

For reference, reported TGI for Nc1c(C(=O)Nc2ccccn2)sc2nc3c(cc12)CCCCCC3 stands at 9.83

For reference, reported TGI for CCN(CCNc1ccc(C)c2sc3cc(Cl)ccc3c(=O)c12)CC(C)(C)O stands at 14.2

For reference, reported TGI for Cc1ccccc1CNc1c2ccccc2nc2ccccc12 stands at 4.19

For reference, reported TGI for O=C1C2C(C(=O)N1CC[Se][Se]CCN1C(=O)C3C(C1=O)[C@H]1C=C[C@@H]3C1)[C@H]1C=C[C@@H]2C1 (some centres not stated) stands at 5.78

For reference, reported TGI for O=[N+]([O-])c1ccc(/C=C\c2ccc3c(c2)OCO3)c([N+](=O)[O-])c1 stands at 35.3

For reference, reported TGI for Fc1ccc(C(OCCN2CC3CC2CN3)c2ccc(F)cc2)cc1 (configuration not stated) stands at 38.1

For reference, reported TGI for C=C(Cl)C(Cl)(CBr)CCC(Br)C(C)(C)Cl (configuration not stated) stands at 4.17

For reference, reported TGI for Cn1c(SCc2c[nH]c3ccccc23)nnc1-c1ccc(Cl)cc1Cl stands at 36.2

For reference, reported TGI for CCN(CC)CCCNc1c2ccc(Cl)cc2nc2ccc(OC)cc12 stands at 3.31

For reference, reported TGI for O=c1c2ccccc2n2cnc3ccc(NCCNCCO)c1c32 stands at 8.8

---

System: NCI-H522 lung
Assay: NCI tumour cell line growth inhibition, 48 h; in the data active means GI50 below about 0.43 µM; inactive means the rest
Respond only with the outcome that fits, drawn from TRUE (active), FALSE (inactive)

Any idea what this test logged for Nc1n[nH]c2ccc([C@@H]3Nc4c(F)cc5[nH]ncc5c4[C@H]4C5CCC(C5)[C@@H]34)cc12 (stereo partly drawn) ? TRUE

Any idea what this test logged for Cc1ccc(C(=O)N2C/C(=C/c3ccccc3)C(=O)/C(=C/c3ccccc3)C2)cc1 ? FALSE

Any idea what this test logged for O=C(CN(/C=C/C(=O)C(F)(F)F)c1ccccc1)c1ccc(F)cc1 ? FALSE

Any idea what this test logged for CN1CCOCCOCCOc2ccccc2NC(=O)c2nc(cnc2N)-c2ccc(cc2)S1(=O)=O ? FALSE

Any idea what this test logged for O=C(Nc1cccc(-n2cc(-c3ccncc3)c(-c3ccc(O)c(Cl)c3)n2)c1)Nc1ccc(Cl)c(Cl)c1 ? FALSE

Any idea what this test logged for COc1cc(OC)c(/C=C/C(=O)c2c(N)cc(OC)cc2OC)c(OC)c1 ? TRUE

Any idea what this test logged for CN(c1ccc(NC(=O)NCCN2CCOCC2)cc1)c1ccnc(Nc2ccc(CS(C)(=O)=O)cc2)n1 ? FALSE

Any idea what this test logged for O=C1c2ccccc2-c2c1c1ccc([N+](=O)[O-])cc1c(=O)n2CCCCl ? FALSE

Any idea what this test logged for Cc1cn2c(/C=C3/C(=O)Nc4ccc(C(=O)O)cc43)c(C)nc2s1 ? FALSE

Any idea what this test logged for O=S(=O)(NCCCNc1nccc(-c2c(-c3cccc(F)c3)nc3occn23)n1)c1cccc2ccccc12 ? FALSE

Any idea what this test logged for Cc1cc(-c2ccco2)cc(C)c1/C=C/c1cncc(-c2nn[nH]n2)c1 ? FALSE

Any idea what this test logged for CCN(CC)C(=S)SSCCO ? TRUE

Any idea what this test logged for CCN(CC)CCS(=O)(=O)CCNc1ccnc2cc(Cl)ccc12 ? FALSE
